# TESTED ON: recombinant human KDAC3 (Homo sapiens, UniProt O15379)
# Construct: purchased BPS Bioscience
# Sequence (O15379 whole entry): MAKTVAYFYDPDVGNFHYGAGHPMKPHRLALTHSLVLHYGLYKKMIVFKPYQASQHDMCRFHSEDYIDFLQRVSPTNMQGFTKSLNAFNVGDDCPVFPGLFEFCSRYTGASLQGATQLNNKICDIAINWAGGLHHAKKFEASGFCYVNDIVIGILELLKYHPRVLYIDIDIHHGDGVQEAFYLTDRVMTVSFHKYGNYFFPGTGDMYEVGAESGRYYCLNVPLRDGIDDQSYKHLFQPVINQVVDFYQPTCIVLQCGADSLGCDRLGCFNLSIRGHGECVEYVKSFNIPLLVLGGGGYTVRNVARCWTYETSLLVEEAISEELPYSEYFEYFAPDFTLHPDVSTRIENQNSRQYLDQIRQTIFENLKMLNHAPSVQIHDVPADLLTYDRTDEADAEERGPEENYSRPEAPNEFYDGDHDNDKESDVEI
# Sequence (Q9Y618 395-489 partner limits assumed): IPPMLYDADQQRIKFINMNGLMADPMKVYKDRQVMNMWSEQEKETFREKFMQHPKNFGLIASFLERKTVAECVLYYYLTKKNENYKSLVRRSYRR
# ASSAY COMMENT: KDAC inhibition assay, Caliper EZ Reader II
# Assay type: biochemical
# ASSAY SETUP: 10-point dose curve from 30 μM; read-out: KDAC Inhibition Activity (IC50) KDAC3
READOUT TYPE: IC50 (µM)
Return type: number; implicit unit µM.

molecule="Nc1ccccc1NC(=O)c1ccc(-c2cn(CCc3ccsc3)nn2)cc1 [Compound T247, reference compound]" value_measured=3.94

Now consider a different molecule.
If you can, please state the reported IC50 value of CC(=O)SCC/C=C/[C@@H]1CC(=O)NCc2cc(ccn2)C2=N[C@@](C)(CS2)C(=O)N[C@@H](C(C)C)C(=O)O1 [SD-L-256, reference compound] .
0.47

The measurements presented in this section are drawn from patent US10421778B2.
